This listing pairs molecules with measured EC50.
System: COV362-47R
Assay: Cytotoxicity, 3D spheroids, CellTiter Glo 3D
Assay type: cell-based
Conditions: Homo sapiens, 48 h exposure, carboplatin resistant line, read-out: EC50 (μM ± SEM) COV362-47R

Field: example entries. Status: answers known.
>  <molecule>
C[C@]1(c2nc3c(C(N)=O)cccc3[nH]2)CCCN1 [Veliparib, reference compound]

>  <targetDesc>
COV362-47R

>  <EC50>
> 50 µM

$$$$
>  <molecule>
O=C1NC(=O)c2c(-c3ccccc3)csc2C1=O [EJR-912-43]

>  <targetDesc>
COV362-47R

>  <EC50>
> 50 µM

$$$$
>  <molecule>
CC(=O)O[C@H]1C(=O)[C@@]2(C)[C@H]([C@H](OC(=O)c3ccccc3)[C@]3(O)C[C@H](OC(=O)[C@H](O)[C@@H](NC(=O)c4ccccc4)c4ccccc4)C(C)=C1C3(C)C)[C@]1(OC(C)=O)CO[C@@H]1C[C@@H]2O [Paclitaxel, reference compound]

>  <targetDesc>
COV362-47R

>  <EC50>
> 5 µM

$$$$
>  <molecule>
CN1C(=O)C(=N)c2sc(-c3ccccc3)cc2C1=O [NRT-870-59]

>  <targetDesc>
COV362-47R

>  <EC50>
> 50 µM

$$$$
>  <molecule>
O=C(c1cc(Cc2n[nH]c(=O)c3ccccc23)ccc1F)N1CCN(C(=O)C2CC2)CC1 [Olaparib]

>  <targetDesc>
COV362-47R

>  <EC50>
> 50 µM

$$$$

API: the following record is the query input.
In: # EC50 lookup, item N=C1C(=O)NC(=O)c2c(-c3ccccc3)csc21 [EJR-912-41]
Out: > 50 µM

###

System: COV362 parent line
Test: Viability assay with 3-(4,5-dimethylthiazol-2-yl)-2,5-diphenyltetrazolium bromide
Type: cell-based, human
Details: MTT viability assay, read-out: EC50 (concentration that caused a 50% cytotoxicity)
measurementLabel: EC50

In: # EC50 lookup, item N.N.O=C([O-])C1(C(=O)[O-])CCC1.[Pt+2]
Out: ~20 µM

###

Target: recombinant human PTP4A3 (Homo sapiens, UniProt O75365)
Construct: The cDNA for the full-length ptp4a3 was obtained from OriGene (SC308739); His6 (N)
Sequence (O75365 whole entry): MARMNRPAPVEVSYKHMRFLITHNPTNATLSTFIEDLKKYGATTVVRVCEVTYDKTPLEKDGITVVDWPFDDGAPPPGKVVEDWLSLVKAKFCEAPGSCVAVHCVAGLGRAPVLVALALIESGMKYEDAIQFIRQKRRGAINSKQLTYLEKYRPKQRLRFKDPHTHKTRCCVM
Assay: In vitro phosphatase inhibition (DiFMUP substrate)
Conditions: Mean ± SEM, N = 3, * N = 6, ** N = 8; DiFMUP 12 μM, 25 °C, 30 min; read-out: in vitro IC50 against recombinant human PTP4A3
measurementLabel: pIC50
Scale explanation: pIC50 corresponds to minus log10 of a concentration expressed in moles per litre.

Field: example entries. Status: answers known.
>  <molecule>
N=C1C(=O)NC(=O)c2c(-c3ccccc3)csc21 [EJR-912-41]

>  <targetDesc>
recombinant human PTP4A3 (Homo sapiens, UniProt O75365)

>  <pIC50>
7.20

$$$$
>  <molecule>
O=C1NC(=O)c2c(-c3ccccc3)csc2C1=O [EJR-912-43]

>  <targetDesc>
recombinant human PTP4A3 (Homo sapiens, UniProt O75365)

>  <pIC50>
7.27

$$$$
>  <molecule>
Cc1cc2c(s1)C(=O)C(=O)NC2=O [EJR-912-50]

>  <targetDesc>
recombinant human PTP4A3 (Homo sapiens, UniProt O75365)

>  <pIC50>
7.22

$$$$

API: the following record is the query input.
In: # pIC50 lookup, item Cc1cc2c(s1)C(=N)C(=O)NC2=O [EJR-912-57]
Out: 7.05

###

System: COV362
Assay: Cytotoxicity, 3D spheroids, CellTiter Glo 3D
Format: cell-based
Settings: Homo sapiens, 48 h exposure, read-out: EC50 (μM ± SEM) COV362
measurementLabel: EC50

Field: example entries. Status: answers known.
>  <compound>
CN1C(=O)C(=N)c2sc(-c3ccccc3)cc2C1=O [NRT-870-59]

>  <targetDesc>
COV362

>  <EC50>
> 50 µM

$$$$
>  <compound>
Cc1cc2c(s1)C(=O)C(=O)NC2=O [EJR-912-50]

>  <targetDesc>
COV362

>  <EC50>
> 50 µM

$$$$
>  <compound>
N=C1C(=O)NC(=O)c2c(-c3ccccc3)csc21 [EJR-912-41]

>  <targetDesc>
COV362

>  <EC50>
31.6 µM

$$$$

In: # EC50 lookup, item O=C(c1cc(Cc2n[nH]c(=O)c3ccccc23)ccc1F)N1CCN(C(=O)C2CC2)CC1 [Olaparib]
Out: > 50 µM

In: # EC50 lookup, item Cc1cc2c(s1)C(=N)C(=O)NC2=O [EJR-912-57]
Out: 28.3 µM

In: # EC50 lookup, item CC[C@@]1(O)C(=O)OCc2c1cc1n(c2=O)Cc2cc3c(CN(C)C)c(O)ccc3nc2-1 [Topotecan, reference compound]
Out: 2.5 µM

In: # EC50 lookup, item O=C1NC(=O)c2c(-c3ccccc3)csc2C1=O [EJR-912-43]
Out: > 50 µM

In: # EC50 lookup, item CC(=O)O[C@H]1C(=O)[C@@]2(C)[C@H]([C@H](OC(=O)c3ccccc3)[C@]3(O)C[C@H](OC(=O)[C@H](O)[C@@H](NC(=O)c4ccccc4)c4ccccc4)C(C)=C1C3(C)C)[C@]1(OC(C)=O)CO[C@@H]1C[C@@H]2O [Paclitaxel, reference compound]
Out: > 5 µM

In: # EC50 lookup, item C[C@]1(c2nc3c(C(N)=O)cccc3[nH]2)CCCN1 [Veliparib, reference compound]
Out: > 50 µM

###

This listing pairs compounds with measured EC50.
Test system: COV362-47R
Test: Cytotoxicity, 3D spheroids, CellTiter Glo 3D
Type: cell-based
Conditions: Homo sapiens, 48 h exposure, carboplatin resistant line, read-out: EC50 (μM ± SEM) COV362-47R

>  <compound>
Cc1cc2c(s1)C(=N)C(=O)NC2=O [EJR-912-57]

>  <EC50>
> 50 µM

$$$$
>  <compound>
CC[C@@]1(O)C(=O)OCc2c1cc1n(c2=O)Cc2cc3c(CN(C)C)c(O)ccc3nc2-1 [Topotecan, reference compound]

>  <EC50>
25.3 µM

$$$$

API: the following record is the query input.
In: # EC50 lookup, item Cc1cc2c(s1)C(=O)C(=O)NC2=O [EJR-912-50]
Out: > 50 µM
